- tested-target: ULK1 kinase (Homo sapiens, UniProt O75385, E37A/K38A)
- Construct: (residues 1-283; ID NO: 1); purchased Beryllium
- Sequence (O75385 1-283 E37A/K38A): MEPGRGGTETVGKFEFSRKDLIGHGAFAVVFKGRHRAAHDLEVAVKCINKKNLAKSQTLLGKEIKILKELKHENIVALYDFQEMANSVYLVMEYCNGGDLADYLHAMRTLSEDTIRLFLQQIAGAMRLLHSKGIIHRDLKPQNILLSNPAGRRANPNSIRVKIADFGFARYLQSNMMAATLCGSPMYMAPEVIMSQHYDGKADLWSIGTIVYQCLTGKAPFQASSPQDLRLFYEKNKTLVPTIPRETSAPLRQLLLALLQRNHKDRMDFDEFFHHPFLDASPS
- test-description: Biochemical assay for ULK1 (coupled pyruvate kinase/lactate dehydrogenase assay)
- reported-conditions: 1 mM ATP, 0.1 nM ULK1; read-out: ULK1 (inhibition of biochemical activity), IC50
- Experimental: Biochemical Assay for ULK1 (SEQ. ID NO: 1) Activity of ULK1 kinase was determined spectroscopically using a coupled pyruvate kinase/lactate dehydrogenase assay that continuously monitors the ATP hydrolysis-dependent oxidation of NADH (e.g., Schindler et al. Science (2000) 289: 1938-1942). […] Inhibition of ULK1 was measured by adding serial diluted test compound (final assay concentration of 1% DMSO). […] The reaction rate was calculated using the 2-3 h time frame. […]
endpoint: IC50

# count of solved cases: 4
C/C(Nc1cnn(C2CCN(C(C)C)CC2)c1)=C1/C(=O)Nc2ccc(C(=O)NC[C@H]3CCCO3)cc21
≤ 10 nM
CC/C(Nc1ccn(C(C)C)n1)=C1/C(=O)Nc2ccc(C(=O)NCC(F)(F)F)cc21
100 to 500 nM
CC/C(Nc1cnn(C2CCN(CCOC)CC2)c1)=C1/C(=O)Nc2ccc(C(=O)NCC(C)C)cc21
≤ 10 nM
CC/C(Nc1cnn(C2CCN(C(C)C)CC2)c1)=C1/C(=O)Nc2ccc(C(=O)NCC(=O)N3CCCC3)cc21
100 to 500 nM

// below: IC50 requested for another molecule
// query Provide value of IC50 for this record tested with ULK1 kinase (Homo sapiens, UniProt O75385, E37A/K38A): CC/C(Nc1cnn(C2CN(C)C2)c1)=C1/C(=O)Nc2ccc(C(=O)NC[C@H]3CCCO3)cc21
// result ≤ 10 nM
